- TARGET ENTITY: MMP-13 (Homo sapiens)
- PROTOCOL SUMMARY: MMP-13 inhibition (thiopeptide or fluorescent peptide substrate)
- Format: biochemical
- EXPERIMENTAL CONTEXT: MMP-13 IC50
READOUT TYPE: pIC50
// pIC50 is dimensionless: -log10 of concentration (M)

CC#CCOc1ccc(S(=O)(=O)NC(C(=O)NO)C(C)C)cc1 (stereo not shown) | 7.74
CC#CCOc1ccc(S(=O)(=O)N(C)C(C(=O)NO)C(C)(C)SCc2cccnc2)cc1 (stereo not shown) | 8.77
CC#CCOc1ccc(S(=O)(=O)N2CCN(Cc3cccnc3)CC2C(=O)NO)cc1 (stereo not shown) | 7.31

Could you now look at the following molecule, please?
Inquiry: Using the record for CC#CCOc1ccc(S(=O)(=O)N2CCN(C)CCC2C(=O)NO)cc1 (stereo not shown) , report its pIC50.
Reply text: 7.68
